- assay_target: Gal-3 (Homo sapiens, UniProt P17931)
- Sequence (P17931 whole entry, species assumed): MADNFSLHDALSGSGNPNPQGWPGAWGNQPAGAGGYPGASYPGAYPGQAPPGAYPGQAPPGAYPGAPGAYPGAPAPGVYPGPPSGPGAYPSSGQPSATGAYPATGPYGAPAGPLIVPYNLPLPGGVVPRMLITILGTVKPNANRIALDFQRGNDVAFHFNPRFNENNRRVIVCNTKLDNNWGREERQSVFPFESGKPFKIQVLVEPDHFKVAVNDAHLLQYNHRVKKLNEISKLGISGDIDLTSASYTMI
- test_method_notes: Fluorescence anisotropy assay, inhibition of galectin / fluorescein tagged saccharide probe interaction
pKd: −log10 of the molar value.
parameter: pKd

As a guide, the following entries are already answered.
compound | pKd
Cc1nc([C@@H]2OC(CO)[C@H](O)C(n3cc(-c4cc(F)c(F)c(F)c4)cn3)C2O)n(-c2cc(Cl)ccc2C#N)n1 (stereo in doubt) | 7.43
Cc1nc([C@@H]2OC(CO)[C@H](O)C(n3cc(-c4cc(F)c(F)c(F)c4)cn3)C2O)n(-c2cc(Br)cnc2C(F)(F)F)n1 (stereo in doubt) | 7.96

[P] Cc1nc([C@@H]2OC(CO)[C@H](O)C(n3cc(-c4cc(F)c(Cl)c(F)c4)cn3)C2O)n(-c2cc(Cl)cnc2C2CC2)n1 (stereo in doubt)
[Q] Cc1nc([C@@H]2OC(CO)[C@H](O)C(n3cc(-c4cc(F)c(Cl)c(F)c4)c(C)n3)C2O)n(-c2cc(Cl)ccc2C(F)(F)F)n1 (stereo in doubt)
[R] COc1ccccc1-c1nn(C2C(O)[C@H](c3nc(C)nn3-c3cc(Cl)ccc3C(F)(F)F)OC(CO)[C@@H]2O)cc1-c1cc(F)c(F)c(F)c1 (stereo in doubt)
Descending sort on pKd required. Put the labels in the requested order and list them out. Q, R, P

---

- assay_target: Gal-3 (Homo sapiens, UniProt P17931)
- test_method_notes: Fluorescence anisotropy assay, inhibition of galectin / fluorescein tagged saccharide probe interaction
parameter: Kd (nM)

As a guide, the following entries are already answered.
compound | Kd, nM
C#Cc1c(F)cc(-c2cnn(C3C(O)[C@H](c4nc(C)nn4-c4cc(Cl)ccc4C(F)(F)F)OC(CO)[C@@H]3O)c2)cc1F (stereo in doubt) | 60
Cc1nc([C@@H]2OC(CO)[C@H](O)C(n3cc(-c4cc(F)c(F)c(F)c4)c(C)n3)C2O)n(-c2cc(Cl)ccc2C(F)(F)F)n1 (stereo in doubt) | 13

[I] Cc1nc([C@@H]2OC(CO)[C@H](O)C(n3cc(-c4cc(F)c(F)c(F)c4)cn3)C2O)n(-c2cc(-c3cc(F)c(F)c(F)c3)ccc2C(F)(F)F)n1 (stereo in doubt)
[II] Cc1nc([C@@H]2OC(CO)[C@H](O)C(n3cc(-c4cc(F)c(Cl)c(F)c4)cn3)C2O)n(-c2ccc3nc(C)sc3c2)n1 (stereo in doubt)
Could you point out whether the larger Kd belongs to I or to II ? Use the label to indicate which entry you chose. I
